# System: IL-17A-induced G-CSF production in human normal keratinocyte (NHK)
# EXPERIMENT_NOTES: NHK assay: IL-17A-induced G-CSF production in normal human keratinocytes
# Format: cell-based
# CONDITION_DESCRIPTION: Homo sapiens, Keratinocyte, 24 h, IL-17A 5 ng/mL, average if tested more than once
IC50: recorded values

Form field IC50 for item C[C@@H](NC(=O)CCC(F)(F)F)c1ccc2[nH]c([C@@H](NC(=O)[C@@H]3CC[C@@H]3CF)C3CCC(F)(F)CC3)nc2c1 (single isomer, unassigned) on IL-17A-induced G-CSF production in human normal keratinocyte (NHK): > 0.1 µM

Form field IC50 for item `C[C@@H](NC(=O)CC(C(F)(F)F)C(F)(F)F)c1ccc2[nH]c([C@@H](NC(=O)c3ccnn3C)C3CCC(F)(F)CC3)nc2c1` on IL-17A-induced G-CSF production in human normal keratinocyte (NHK): < 0.05 µM

Form field IC50 for item CC(CC(=O)N[C@H](C)c1ccc2nc([C@@H](NC(=O)c3ccnn3CC(F)(F)F)C3CCC(F)(F)CC3)[nH]c2c1)C(F)(F)F (single isomer, unassigned) on IL-17A-induced G-CSF production in human normal keratinocyte (NHK): > 0.1 µM

----------
IC50: recorded values
# TESTED_TARGET: IL-17A : IL-17RA binding (Homo sapiens, UniProt Q16552, K93Q)
# Construct: Name: IL-17A-Flag
# Sequence (Q16552 with tags, fused parts or gaps K93Q): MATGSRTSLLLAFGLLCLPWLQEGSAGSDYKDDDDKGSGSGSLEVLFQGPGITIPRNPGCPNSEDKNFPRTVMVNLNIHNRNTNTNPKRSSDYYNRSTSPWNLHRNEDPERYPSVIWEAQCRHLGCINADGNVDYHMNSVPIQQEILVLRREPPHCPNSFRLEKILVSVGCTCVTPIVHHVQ
# EXPERIMENT_NOTES: IL-17A(FLAG-tagged):IL-17RA(His-tagged) binding disruption Eu-HTRF assay, Protocol 1
# CONDITION_DESCRIPTION: FLAG-IL-17A 2.5 nM at 2x final concentration; average if tested more than once

C[C@@H](NC(=O)CCC(F)(F)F)c1ccc2[nH]c([C@@H](NC(=O)c3cnnn3CCCC(F)(F)F)C3CCC(F)(F)CC3)nc2c1 [Example 20]    > 100 nM
CC(C)c1nonc1C(=O)NC(CC(C)(C)C(F)(F)F)c1nc2cc([C@@H](C)NC(=O)CCC(F)(F)F)ccc2[nH]1 (single isomer, unassigned) [Example 57]    < 50 nM
C[C@@H](O[C@H](C)C(F)(F)F)[C@H](NC(=O)c1nonc1C1CC1)c1nc2ccc([C@H](NC(=O)C[C@H]3CC3(F)F)C3(C#N)CC3)cc2[nH]1 [Example 269]    < 50 nM

Form field IC50, entry C[C@@H](NC(=O)CCC(F)(F)F)c1ccc2[nH]c([C@@H](NC(=O)c3cnn(CC45CC(C#N)(C4)C5)n3)C3CCC(F)(F)CC3)nc2c1 [Example 78] : > 100 nM

Form field IC50, entry C[C@@H](NC(=O)CCC(F)(F)F)c1ccc2[nH]c([C@@H](NC(=O)c3cn(CCCC(F)(F)F)nn3)C3CCC(F)(F)CC3)nc2c1 [Example 21] : > 100 nM

Form field IC50, entry CC(C)n1nccc1C(=O)N[C@H](c1nc2cc([C@@H](C)NC(=O)CC(C(F)(F)F)C(F)(F)F)ccc2[nH]1)C1CCC(F)(F)CC1 [Example 125] : > 100 nM

----------
# System: IL-17A-induced G-CSF production in human normal keratinocyte (NHK)
# EXPERIMENT_NOTES: NHK assay: IL-17A-induced G-CSF production in normal human keratinocytes
# Assay type: cell-based
# CONDITION_DESCRIPTION: Homo sapiens, Keratinocyte, 24 h, IL-17A 5 ng/mL, average if tested more than once
IC50: recorded values

For orientation, consider the following solved cases.
CC(C)n1nccc1C(=O)N[C@@H](C[C@H]1CCC(F)(F)C1)c1nc2ccc([C@H](NC(=O)CC3CC(F)(F)C3)C3CC3)cc2[nH]1    > 100 nM
Cc1nonc1C(=O)NC(CC(C)(C)C(F)(F)F)c1nc2cc([C@@H](C)NC(=O)CCC(F)(F)F)ccc2[nH]1 (single isomer, unassigned)    > 100 nM
C[C@@H](NC(=O)CCC(F)(F)F)c1ccc2[nH]c([C@@H](NC(=O)c3cnnn3CCCC(F)(F)F)C3CCC(F)(F)CC3)nc2c1    50 to 100 nM
Cn1nccc1C(=O)N[C@H](c1nc2cc(C(NC(=O)CCC(F)(F)F)C3CCC3)ccc2[nH]1)C1CCC(F)(F)CC1 (single isomer, unassigned)    < 50 nM
C[C@@H](NC(=O)CCC(F)(F)F)c1ccc2nc([C@@H](NC(=O)c3cnn(C)c3C(F)F)C3CCC(F)(F)CC3)[nH]c2c1    > 100 nM

Could you now look at the following compound, please?
Form field IC50, entry `C[C@@H](NC(=O)CCC(F)(F)F)c1ccc2[nH]c([C@@H](NC(=O)c3ncn(CC4CC4)n3)C3CCC(F)(F)CC3)nc2c1` : > 100 nM

Reference source: patent US20240376085A1
